Field: inhibition at 1 µM. Provide a value for each of the compounds that follow.
Target: MAGL (Mus musculus, UniProt O35678)
Construct: Proteomes (mouse brain membrane fraction or cell lysates); from tissue; host or cells: mouse brain membrane fraction (or cell lysates)
Sequence (O35678 1-303): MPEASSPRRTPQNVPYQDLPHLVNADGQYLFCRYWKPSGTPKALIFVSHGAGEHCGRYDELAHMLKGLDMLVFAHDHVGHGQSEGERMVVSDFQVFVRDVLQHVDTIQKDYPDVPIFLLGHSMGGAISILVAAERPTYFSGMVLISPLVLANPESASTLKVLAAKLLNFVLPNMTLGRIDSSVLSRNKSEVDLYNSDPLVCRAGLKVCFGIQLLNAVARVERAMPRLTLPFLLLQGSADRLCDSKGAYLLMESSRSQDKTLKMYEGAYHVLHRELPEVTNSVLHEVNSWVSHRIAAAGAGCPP
Experiment: In vitro competitive activity-based protein profiling (mouse), MAGL gel band
Type: biochemical
Conditions: read-out: MAGL % inh. 1 μM

Exercise: So what does the record say about inhibition at 1 µM for CC(=O)Nc1ccn(C(=O)N2CCC3(CCCN3Cc3cc(OCC(=O)N4CCCC4)cc(C(F)(F)F)c3)CC2)n1 ?
Solution: ≥ 75%

Exercise: So what does the record say about inhibition at 1 µM for CS(=O)(=O)Nc1ccn(C(=O)N2CCC3(CCCN3Cc3ccc(C(F)(F)F)cc3N3CCN(S(C)(=O)=O)CC3)CC2)n1 ?
Solution: 0 to 25%

Exercise: So what does the record say about inhibition at 1 µM for CC(=O)Nc1ccn(C(=O)N2CCN(Cc3ccc(C(F)(F)F)cc3C3CCN(CC(=O)O)CC3)CC2)n1 ?
Solution: ≥ 75%

Exercise: So what does the record say about inhibition at 1 µM for CC(=O)Nc1ccn(C(=O)N2CCC3(CCCN3Cc3ccc(Cl)c(C(F)(F)F)c3)CC2)n1 ?
Solution: ≥ 75%

Exercise: So what does the record say about inhibition at 1 µM for CC(=O)Nc1ccn(C(=O)N2CCC3(CCCN3Cc3cc(Cl)cc(N4CC5CN(C(C)=O)CC5C4)c3)CC2)n1 (centres unmarked) ?
Solution: ≥ 75%

Exercise: So what does the record say about inhibition at 1 µM for CS(=O)(=O)Nc1ccn(C(=O)N2CCN(Cc3ccc(N4CCOCC4)cc3C(F)(F)F)CC2)n1 ?
Solution: 25 to 50%

Exercise: So what does the record say about inhibition at 1 µM for CS(=O)(=O)Nc1ccn(C(=O)N2CCN(Cc3ccc(Cl)cc3N3CCC(F)CC3)CC2)n1 ?
Solution: ≥ 75%

Exercise: So what does the record say about inhibition at 1 µM for CS(=O)(=O)Nc1ccn(C(=O)N2CCN(Cc3cc(Cl)ccc3N3CCOCC3)CC2)n1 ?
Solution: ≥ 75%

Exercise: So what does the record say about inhibition at 1 µM for [2H]C([2H])([2H])c1cc(CN2CCCC23CCN(C(=O)n2ccc(NC(C)=O)n2)CC3)ccc1Cl ?
Solution: ≥ 75%

Exercise: So what does the record say about inhibition at 1 µM for CS(=O)(=O)Nc1ccn(C(=O)N2CCC3(CCCN3Cc3ccc(C(F)(F)F)cc3N3CCC(C(=O)O)CC3)CC2)n1 ?
Solution: 0 to 25%

Exercise: So what does the record say about inhibition at 1 µM for Cc1ccc(CN2CCN(C(=O)n3ccc(NS(C)(=O)=O)n3)CC2)c(N2CCCC2)c1 ?
Solution: ≥ 75%

Exercise: So what does the record say about inhibition at 1 µM for CS(=O)(=O)Nc1ccn(C(=O)N2CCN(Cc3cc(C(F)(F)F)ccc3N3CCOCC3)CC2)n1 ?
Solution: 50 to 75%

Exercise: So what does the record say about inhibition at 1 µM for CC(=O)Nc1ccn(C(=O)N2CCC3(CCCN3Cc3cc(Oc4cncnc4)cc(C(F)(F)F)c3)CC2)n1 ?
Solution: ≥ 75%

Exercise: So what does the record say about inhibition at 1 µM for CC(=O)N1CC2CCC(C1)N2c1cc(C(F)(F)F)ccc1CN1CCN(C(=O)n2ccc(NS(C)(=O)=O)n2)CC1 ?
Solution: ≥ 75%

Exercise: So what does the record say about inhibition at 1 µM for CC(=O)Nc1ccn(C(=O)N2CCN(Cc3ccc(C(F)(F)F)cc3N3CC4COCC4C3)CC2)n1 (centres unmarked) ?
Solution: ≥ 75%

Exercise: So what does the record say about inhibition at 1 µM for CS(=O)(=O)Nc1ccn(C(=O)N2CCN(Cc3ccc(Cl)c(N4CCCCC4)c3)CC2)n1 ?
Solution: ≥ 75%

Exercise: So what does the record say about inhibition at 1 µM for CS(=O)(=O)Nc1ccn(C(=O)N2CCN(Cc3ccc(C(F)(F)F)c(Cl)c3)CC2)n1 ?
Solution: ≥ 75%

Exercise: So what does the record say about inhibition at 1 µM for CC(=O)Nc1ccn(C(=O)N2CCN(Cc3ccc(C(F)(F)F)cc3N3CCC(F)(F)CC3)CC2)n1 ?
Solution: ≥ 75%

Exercise: So what does the record say about inhibition at 1 µM for CC(=O)Nc1ccn(C(=O)N2CCN(Cc3ccc(C(F)(F)F)cc3N3CCN(S(C)(=O)=O)CC3)CC2)n1 ?
Solution: ≥ 75%

Exercise: So what does the record say about inhibition at 1 µM for CC(=O)Nc1ccn(C(=O)N2CCC3(CCCN3Cc3ccc(C(F)(F)F)cc3N3CCC4(CCOCC4)C3)CC2)n1 ?
Solution: ≥ 75%

Exercise: So what does the record say about inhibition at 1 µM for CS(=O)(=O)Nc1ccn(C(=O)N2CCN(Cc3ccc(C(F)(F)F)cc3N3CCN(S(C)(=O)=O)CC3)CC2)n1 ?
Solution: ≥ 75%

Exercise: So what does the record say about inhibition at 1 µM for CC(=O)Nc1ccn(C(=O)N2CCC3(CCCN3Cc3ccc(C(=O)O)c(C(F)(F)F)c3)CC2)n1 ?
Solution: ≥ 75%

Exercise: So what does the record say about inhibition at 1 µM for CC(=O)Nc1ccn(C(=O)N2CCN(Cc3cc(OC4CCS(=O)(=O)CC4)cc(C(F)(F)F)c3)CC2)n1 ?
Solution: ≥ 75%

Exercise: So what does the record say about inhibition at 1 µM for CC(=O)Nc1ccn(C(=O)N2CCC3(CCCN3Cc3cc(N4CCCC4)cc(C(F)(F)F)c3)CC2)n1 ?
Solution: ≥ 75%

Exercise: So what does the record say about inhibition at 1 µM for CC(=O)N(C)c1ccn(C(=O)N2CCC3(CCCN3Cc3cc(N4CCCC4)cc(C(F)(F)F)c3)CC2)n1 ?
Solution: 50 to 75%

Exercise: So what does the record say about inhibition at 1 µM for CC(=O)Nc1ccn(C(=O)N2CCN(Cc3ccc(Cl)cc3N3CCCC3)CC2)n1 ?
Solution: ≥ 75%

Exercise: So what does the record say about inhibition at 1 µM for CC(=O)Nc1ccn(C(=O)N2CCC3(CCCN3Cc3ccc(C(F)(F)F)cc3Oc3nc4ccccc4s3)CC2)n1 ?
Solution: ≥ 75%

Exercise: So what does the record say about inhibition at 1 µM for Cc1ccc(CN2CCN(C(=O)n3ccc(NS(C)(=O)=O)n3)CC2)c(N2CC3CCC(C2)O3)c1 ?
Solution: ≥ 75%

Exercise: So what does the record say about inhibition at 1 µM for CC(=O)Nc1ccn(C(=O)N2CCC3(CCCN3Cc3ccc(Cl)c(N4CCCC4)c3)CC2)n1 ?
Solution: ≥ 75%
